measurement.kind: melting point

• Nc1ccccc1C(=O)Oc1c(-c2ccc(O)c(O)c2)oc2cc(O)cc(O)c2c1=O = 198 to 199 °C
• N#CCCCOc1c(-c2ccc(O)c(O)c2)oc2cc(O)cc(O)c2c1=O [Compound 12d] = 169 to 171 °C

The molecule listed as `O=c1c(O)c(-c2ccc(O)c(O)c2)oc2cc(OCc3cccc(Cl)c3)cc(O)c12` shows melting point equal to 260 to 261 °C

The molecule listed as `COc1ccccc1C(=O)Oc1c(-c2ccc(O)c(O)c2)oc2cc(O)cc(O)c2c1=O` shows melting point equal to 183 to 184 °C

The molecule listed as `O=C(Oc1c(-c2ccc(O)c(O)c2)oc2cc(O)cc(O)c2c1=O)c1cccc(Cl)c1` shows melting point equal to > 300 °C

The molecule listed as `O=c1c(O)c(-c2ccc(O)c(O)c2)oc2cc(OCc3ccccc3F)cc(O)c12` shows melting point equal to 254 to 255 °C
